Ref: patent US20260374820

TARGET SYSTEM: T1, human MuSK (human, UniProt O15146)
T1 chain: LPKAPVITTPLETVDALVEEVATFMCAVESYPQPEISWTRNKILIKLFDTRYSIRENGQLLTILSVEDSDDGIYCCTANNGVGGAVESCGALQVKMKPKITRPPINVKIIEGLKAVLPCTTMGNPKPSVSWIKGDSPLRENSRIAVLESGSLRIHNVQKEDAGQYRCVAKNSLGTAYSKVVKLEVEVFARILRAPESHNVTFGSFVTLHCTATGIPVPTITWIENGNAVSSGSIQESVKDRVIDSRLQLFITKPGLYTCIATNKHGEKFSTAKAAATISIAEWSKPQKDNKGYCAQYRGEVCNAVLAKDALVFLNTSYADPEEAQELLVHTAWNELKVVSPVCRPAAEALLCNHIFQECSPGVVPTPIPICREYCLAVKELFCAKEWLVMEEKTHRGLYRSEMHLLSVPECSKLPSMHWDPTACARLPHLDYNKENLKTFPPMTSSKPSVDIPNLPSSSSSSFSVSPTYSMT
EXPERIMENTAL DETAILS: SPR
Where no end group is shown, it is not given here.
For each of the binders below, state its log10 Kd.
Note: values are log10 of Kd expressed in nM.

Solved entries (count: 2):
BINDER | DATA VALUE
MuSK1Ac PEG3 dimer (protein, also: homodimer via PEG3 linker, attachment not given here, name suffix Ac, meaning not given here) chain 1: YLPEFSWPESFVLFLRQRQRQLGRGAE chain 2: YLPEFSWPESFVLFLRQRQRQLGRGAE | 0.64
MuSK9 PEG3 dimer (not fully specified (N-terminus, C-terminus, bridges); cysteine pairing not given here; also: homodimer via PEG3 linker, attachment not given here) chain 1: YWYLQPGYVNIVTSYHC chain 2: YWYLQPGYVNIVTSYHC | 0.32

Record log10 Kd per entry; entries follow.
1. MuSK1Ac Term PEG11 dimer (protein, also: homodimer via terminal PEG11 linker, terminus not given here, name suffix Ac, meaning not given here) chain 1: YLPEFSWPESFVLFLRQRQRQLGRGAE chain 2: YLPEFSWPESFVLFLRQRQRQLGRGAE
2. MuSK1Ac PEG11 dimer (protein, also: homodimer via PEG11 linker, attachment not given here, name suffix Ac, meaning not given here) chain 1: YLPEFSWPESFVLFLRQRQRQLGRGAE chain 2: YLPEFSWPESFVLFLRQRQRQLGRGAE
3. MuSK1Ac Term PEG3 dimer (protein, also: homodimer via terminal PEG3 linker, terminus not given here, name suffix Ac, meaning not given here) chain 1: YLPEFSWPESFVLFLRQRQRQLGRGAE chain 2: YLPEFSWPESFVLFLRQRQRQLGRGAE

1: 0.56; 2: 0.18; 3: 0.78

Could you report log10 Kd for every entry in the following list?
1. MuSK7 PEG3 dimer (not fully specified (N-terminus, C-terminus, bridges); cysteine pairing not given here; also: homodimer via PEG3 linker, attachment not given here) chain 1: YPSYHTNVVASLKRC chain 2: YPSYHTNVVASLKRC
2. MuSK9 PEG11 dimer (not fully specified (N-terminus, C-terminus, bridges); cysteine pairing not given here; also: homodimer via Bis-Mal-dPEG11 linker, attachment not given here) chain 1: YWYLQPGYVNIVTSYHC chain 2: YWYLQPGYVNIVTSYHC
3. MuSK7 PEG11 dimer (not fully specified (N-terminus, C-terminus, bridges); cysteine pairing not given here; also: homodimer via Bis-Mal-dPEG11 linker, attachment not given here) chain 1: YPSYHTNVVASLKRC chain 2: YPSYHTNVVASLKRC
4. MuSK4 PEG11 dimer (not fully specified (N-terminus, C-terminus, bridges); cysteine pairing not given here; also: homodimer via Bis-Mal-dPEG11 linker, attachment not given here) chain 1: YFPTNVVSLLKSC chain 2: YFPTNVVSLLKSC

1: -0.21; 2: 0.59; 3: 0.11; 4: 0.84

Which value of log10 Kd has been reported for MuSK4 PEG3 dimer (not fully specified (N-terminus, C-terminus, bridges); cysteine pairing not given here; also: homodimer via PEG3 linker, attachment not given here) chain 1: YFPTNVVSLLKSC chain 2: YFPTNVVSLLKSC in the records?
0.83
